biological target: GTP cyclohydrolase IB (GCYH-IB) (Neisseria gonorrhoeae, UniProt Q5F9K6); assay: X-ray crystal structure at […] Å; assay type: biochemical

COMPOUND_SMILES	UNIT_DESCRIPTOR	Ki
Nc1nc2c([nH]c(=O)n2[C@@H]2O[C@H](CO[P@@](=O)(O)O[P@@](=O)(O)OP(=O)(O)O)[C@@H](O)[C@H]2O)c(=O)[nH]1	nM	149

###

Measured pKi, listed per entry for reference.
Target: GTP cyclohydrolase IB (GCYH-IB) (Neisseria gonorrhoeae, UniProt Q5F9K6)
Sequence (Q5F9K6 1-257): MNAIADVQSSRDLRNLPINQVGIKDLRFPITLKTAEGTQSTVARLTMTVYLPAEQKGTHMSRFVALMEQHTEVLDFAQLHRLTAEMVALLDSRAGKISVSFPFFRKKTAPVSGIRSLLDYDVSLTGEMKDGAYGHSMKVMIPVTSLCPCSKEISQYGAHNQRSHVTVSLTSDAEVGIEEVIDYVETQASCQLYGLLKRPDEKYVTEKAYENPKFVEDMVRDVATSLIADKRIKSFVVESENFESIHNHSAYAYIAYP
Assay: competitive inhibition kinetics, fluorescence assay of neopterin
Type: biochemical
pKi: −log10 of the molar value.

COMPOUND	pKi
Nc1nc2c(ncn2[C@H]2C[C@H](O)[C@@H](COP(=O)(O)OP(=O)(O)OP(=O)(O)O)O2)c(=O)[nH]1 [2′-deoxyGTP]	3.78
Nc1nc2c(ccn2[C@@H]2O[C@H](COP(=O)(O)OP(=O)(O)OP(=O)(O)O)[C@@H](O)[C@H]2O)c(=O)[nH]1 [7-deaza-GTP]	4.34
